Source of measurements: ChEMBL document CHEMBL4507276

# SYSTEM_UNDER_TEST: L-type Ca2+ channel (verapamil site), Cav1.2 alpha-1C (Rattus norvegicus, UniProt P22002)
# Sequence (P22002 whole entry): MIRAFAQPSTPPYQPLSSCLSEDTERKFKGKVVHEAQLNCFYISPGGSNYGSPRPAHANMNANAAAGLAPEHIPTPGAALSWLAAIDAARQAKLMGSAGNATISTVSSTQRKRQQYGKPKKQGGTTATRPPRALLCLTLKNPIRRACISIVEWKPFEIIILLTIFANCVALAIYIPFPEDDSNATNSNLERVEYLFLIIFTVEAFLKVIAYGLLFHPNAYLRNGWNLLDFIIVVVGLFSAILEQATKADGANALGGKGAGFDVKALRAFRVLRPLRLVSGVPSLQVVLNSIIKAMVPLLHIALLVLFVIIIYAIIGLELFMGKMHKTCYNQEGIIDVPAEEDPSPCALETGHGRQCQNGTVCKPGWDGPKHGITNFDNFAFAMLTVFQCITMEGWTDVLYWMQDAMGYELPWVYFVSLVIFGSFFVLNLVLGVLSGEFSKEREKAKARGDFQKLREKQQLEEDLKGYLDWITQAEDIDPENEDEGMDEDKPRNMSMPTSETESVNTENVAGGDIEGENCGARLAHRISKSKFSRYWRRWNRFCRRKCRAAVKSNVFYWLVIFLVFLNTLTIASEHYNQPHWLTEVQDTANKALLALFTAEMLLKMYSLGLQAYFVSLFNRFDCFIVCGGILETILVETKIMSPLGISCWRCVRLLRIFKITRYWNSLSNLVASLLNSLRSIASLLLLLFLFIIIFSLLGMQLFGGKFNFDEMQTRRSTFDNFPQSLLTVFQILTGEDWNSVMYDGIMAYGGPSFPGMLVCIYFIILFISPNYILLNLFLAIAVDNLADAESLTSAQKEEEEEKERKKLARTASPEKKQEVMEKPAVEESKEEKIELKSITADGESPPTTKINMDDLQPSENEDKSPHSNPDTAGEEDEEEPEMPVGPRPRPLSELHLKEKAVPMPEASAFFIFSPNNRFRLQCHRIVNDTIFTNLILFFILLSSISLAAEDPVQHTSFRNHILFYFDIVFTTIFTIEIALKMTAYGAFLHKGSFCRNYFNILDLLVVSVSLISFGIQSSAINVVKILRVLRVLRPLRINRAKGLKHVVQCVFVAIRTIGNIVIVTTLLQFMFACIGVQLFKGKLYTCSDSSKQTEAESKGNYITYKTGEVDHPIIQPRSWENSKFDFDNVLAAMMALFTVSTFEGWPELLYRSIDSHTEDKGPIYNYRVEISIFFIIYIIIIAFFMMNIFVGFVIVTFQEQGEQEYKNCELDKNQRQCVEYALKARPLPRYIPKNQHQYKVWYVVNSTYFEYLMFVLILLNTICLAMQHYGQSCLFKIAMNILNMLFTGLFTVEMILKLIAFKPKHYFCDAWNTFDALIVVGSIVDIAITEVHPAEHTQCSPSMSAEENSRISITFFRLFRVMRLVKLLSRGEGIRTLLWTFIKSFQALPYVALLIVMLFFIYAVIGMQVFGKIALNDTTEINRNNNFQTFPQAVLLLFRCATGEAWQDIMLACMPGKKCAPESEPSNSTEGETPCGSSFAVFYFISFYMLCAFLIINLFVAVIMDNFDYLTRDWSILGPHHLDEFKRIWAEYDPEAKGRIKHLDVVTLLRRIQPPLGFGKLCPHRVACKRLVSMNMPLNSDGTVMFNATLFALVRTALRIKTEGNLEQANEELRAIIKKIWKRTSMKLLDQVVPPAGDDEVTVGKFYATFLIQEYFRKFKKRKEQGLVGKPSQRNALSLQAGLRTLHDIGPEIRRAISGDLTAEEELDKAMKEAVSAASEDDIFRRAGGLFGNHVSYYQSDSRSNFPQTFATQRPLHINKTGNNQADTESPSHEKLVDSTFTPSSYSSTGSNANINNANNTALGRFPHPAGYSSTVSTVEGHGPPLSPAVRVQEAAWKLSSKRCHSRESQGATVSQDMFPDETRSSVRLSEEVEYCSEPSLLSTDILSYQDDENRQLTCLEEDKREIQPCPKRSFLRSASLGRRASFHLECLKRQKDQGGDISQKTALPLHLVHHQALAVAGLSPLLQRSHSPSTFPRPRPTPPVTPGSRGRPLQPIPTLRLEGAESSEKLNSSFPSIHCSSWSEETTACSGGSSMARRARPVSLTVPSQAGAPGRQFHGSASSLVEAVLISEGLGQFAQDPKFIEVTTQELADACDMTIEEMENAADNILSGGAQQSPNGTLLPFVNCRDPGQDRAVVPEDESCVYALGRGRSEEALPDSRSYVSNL
# EXPERIMENT_SUMMARY: CA+/VERSI/R Cerep selectivity data (BI)
# Design: mode of action inhibitor
# CONDITION_NOTES: rat brain, probe [3H](-)D888, compound concentration 20 uM, read-out: % Ctrl
EXPERIMENTAL_READOUT: activity at 20 µM

[Q] Field: activity at 20 µM (L-type Ca2+ channel (verapamil site), Cav1.2 alpha-1C (Rattus norvegicus, UniProt P22002)). Entry: CN(C)C(=O)Cn1cc(-c2nc([C@@](C)(c3ccc(-c4cnc(N)nc4)cc3)C3CC3)no2)cn1
[A] 90% (not active)
